Give inhibition at 10 µM for every item shown.
Biological target: CaMK4 (h) (Homo sapiens (Human), UniProt Q16566)
Sequence (Q16566 whole entry): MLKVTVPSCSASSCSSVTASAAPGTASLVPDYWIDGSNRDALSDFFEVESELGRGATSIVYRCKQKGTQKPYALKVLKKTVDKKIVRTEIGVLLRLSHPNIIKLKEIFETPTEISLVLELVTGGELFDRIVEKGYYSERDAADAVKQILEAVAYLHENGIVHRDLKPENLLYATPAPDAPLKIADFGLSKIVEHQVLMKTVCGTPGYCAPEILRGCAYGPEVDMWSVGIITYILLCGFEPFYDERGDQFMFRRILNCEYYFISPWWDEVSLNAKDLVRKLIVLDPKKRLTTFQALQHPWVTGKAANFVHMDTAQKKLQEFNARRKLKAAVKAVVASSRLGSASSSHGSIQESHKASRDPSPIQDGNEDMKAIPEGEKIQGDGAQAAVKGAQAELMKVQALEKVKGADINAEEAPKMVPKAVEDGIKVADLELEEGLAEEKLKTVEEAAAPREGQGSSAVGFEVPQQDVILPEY
Test: Kinase selectivity panel: CaMK4 (h)
Type: biochemical
Conditions: 10 μM in duplicate, read-out: % inhibition of control values
API: value field is a number in %; no unit string.

Specify inhibition at 10 µM for `COc1ccc2[nH]nc(C(=O)NCC3CCN(CCC(=O)O)CC3)c2c1` and stop.
15

Specify inhibition at 10 µM for `COCCN1CCC(CNC(=O)c2n[nH]c3ccc(OC)cc23)CC1` and stop.
0

Specify inhibition at 10 µM for `COCCN1CCC(CNC(=O)c2n[nH]c3ccc(-c4cccc(F)c4F)cc23)CC1` and stop.
4

Specify inhibition at 10 µM for `COc1ccc2[nH]nc(C(=O)NCC3CCN(CC(=O)O)CC3)c2c1` and stop.
0
